target: IRAK4 (Homo sapiens, UniProt Q9NWZ3); test: IRAK4 degradation in OCI-LY10 (MSD, Meso Scale Discovery); type: cell-based; set-up: endogenous in cells; host or cells: OCI-LY10; details: OCI-LY10 cells, 24 h
Sequence (Q9NWZ3 whole entry): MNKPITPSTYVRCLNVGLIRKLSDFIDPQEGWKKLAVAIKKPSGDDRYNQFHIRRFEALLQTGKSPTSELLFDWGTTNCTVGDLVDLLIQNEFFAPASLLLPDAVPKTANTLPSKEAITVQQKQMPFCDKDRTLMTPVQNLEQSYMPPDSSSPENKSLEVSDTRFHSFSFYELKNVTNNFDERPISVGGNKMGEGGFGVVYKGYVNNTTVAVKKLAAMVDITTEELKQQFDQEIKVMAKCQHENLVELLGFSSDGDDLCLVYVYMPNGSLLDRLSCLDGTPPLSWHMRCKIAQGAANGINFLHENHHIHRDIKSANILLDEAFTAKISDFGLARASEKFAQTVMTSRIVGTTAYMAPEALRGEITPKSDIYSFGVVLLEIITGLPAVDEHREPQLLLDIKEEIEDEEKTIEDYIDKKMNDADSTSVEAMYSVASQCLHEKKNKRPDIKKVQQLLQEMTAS
PROPERTY: DC50

Ask: Annotate the compound O=C(O)Cn1cc(NC(=O)[C@H]2CCCN(c3cncc(OCCOCCOCCOCCOCCNC[C@H]4CC[C@H](n5cc(NC(=O)c6cnn7ccc(N8C[C@H]9C[C@@H]8CO9)nc67)c(C(F)F)n5)CC4)c3)C2)ccc1=O with its measured DC50.
Reply: > 10 µM

Ask: Annotate the compound O=C(O)Cn1cc(NC(=O)c2cccc3c2ccn3CCCCCCCCCNC[C@H]2CC[C@H](n3cc(NC(=O)c4cnn5ccc(N6C[C@H]7C[C@@H]6CO7)nc45)c(C(F)F)n3)CC2)ccc1=O with its measured DC50.
Reply: > 10 µM

Ask: Annotate the compound O=C(O)Cn1cc(NC(=O)[C@H]2CCCN(c3cncc(C#CCOC4CCN(C[C@H]5CC[C@H](n6cc(NC(=O)c7cnn8ccc(N9C[C@H]%10C[C@@H]9CO%10)nc78)c(C(F)F)n6)CC5)CC4)c3)C2)ccc1=O with its measured DC50.
Reply: > 10 µM

Ask: Annotate the compound CCOC(=O)Cn1cc(NC(=O)c2ccc(-c3ccc(F)c(CCCCCCCCCNC[C@H]4CC[C@H](n5cc(NC(=O)c6cnn7ccc(N8C[C@H]9C[C@@H]8CO9)nc67)c(C(F)F)n5)CC4)c3)cc2OC)ccc1=O with its measured DC50.
Reply: 1 to 10 µM
